Data origin: patent US10774109B2

Loose specific volume values for the compounds below.
Experiment: Loose specific volume (Multi Tester MT-1001T)
Format: physicochemical
Details: α-type crystal

# compound, Loose specific volume / mL/g
data = [
    ("N[C@@H](CCC(=O)N[C@@H](CS)C(=O)NCC(=O)O)C(=O)O [Comparative Example, reduced glutathione]", 3.42),
    ("N[C@@H](CCC(=O)N[C@@H](CS)C(=O)NCC(=O)O)C(=O)O [Commercially available product B, reduced glutathione]", 5.50),
    ("N[C@@H](CCC(=O)N[C@@H](CS)C(=O)NCC(=O)O)C(=O)O [Example 1, reduced glutathione]", 1.88),
    ("N[C@@H](CCC(=O)N[C@@H](CS)C(=O)NCC(=O)O)C(=O)O [Example 3, reduced glutathione]", 2.00),
    ("N[C@@H](CCC(=O)N[C@@H](CS)C(=O)NCC(=O)O)C(=O)O [Commercially available product A, reduced glutathione]", 4.69),
    ("N[C@@H](CCC(=O)N[C@@H](CS)C(=O)NCC(=O)O)C(=O)O [Example 2, reduced glutathione]", 2.00),
]

---

Assay: Dense specific volume (Multi Tester MT-1001T)
Assay type: physicochemical
Conditions: α-type crystal; 200 taps
Given measured Dense specific volume, output met if it is greater than or equal to 2 mL/g and not met if not.

# molecule, classification
rows = [
    ("N[C@@H](CCC(=O)N[C@@H](CS)C(=O)NCC(=O)O)C(=O)O [Example 2, reduced glutathione]", "not met"),
    ("N[C@@H](CCC(=O)N[C@@H](CS)C(=O)NCC(=O)O)C(=O)O [Example 1, reduced glutathione]", "not met"),
    ("N[C@@H](CCC(=O)N[C@@H](CS)C(=O)NCC(=O)O)C(=O)O [Commercially available product B, reduced glutathione]", "met"),
    ("N[C@@H](CCC(=O)N[C@@H](CS)C(=O)NCC(=O)O)C(=O)O [Commercially available product A, reduced glutathione]", "met"),
    ("N[C@@H](CCC(=O)N[C@@H](CS)C(=O)NCC(=O)O)C(=O)O [Example 3, reduced glutathione]", "not met"),
]

---

Test: Loose specific volume (Multi Tester MT-1001T)
Type: physicochemical
Conditions: loose minus dense specific volume
Given measured Difference in specific volume, output YES if it is greater than or equal to 2 mL/g and NO if not.

# compound, classification
data = [
    ("N[C@@H](CCC(=O)N[C@@H](CS)C(=O)NCC(=O)O)C(=O)O [Commercially available product B, reduced glutathione]", "YES"),
    ("N[C@@H](CCC(=O)N[C@@H](CS)C(=O)NCC(=O)O)C(=O)O [Example 2, reduced glutathione]", "NO"),
    ("N[C@@H](CCC(=O)N[C@@H](CS)C(=O)NCC(=O)O)C(=O)O [Commercially available product A, reduced glutathione]", "YES"),
    ("N[C@@H](CCC(=O)N[C@@H](CS)C(=O)NCC(=O)O)C(=O)O [Example 1, reduced glutathione]", "NO"),
    ("N[C@@H](CCC(=O)N[C@@H](CS)C(=O)NCC(=O)O)C(=O)O [Comparative Example, reduced glutathione]", "NO"),
    ("N[C@@H](CCC(=O)N[C@@H](CS)C(=O)NCC(=O)O)C(=O)O [Example 3, reduced glutathione]", "NO"),
]
